Target: Aldehyde dehydrogenase 1A1 (Homo sapiens)
Test: qHTS Assay for Inhibitors of Aldehyde Dehydrogenase 1 (ALDH1A1)
Conditions: Purified ALDH1A1, NADH fluorescence, propionaldehyde substrate; series mostly up to 75.3 µM
Hit rate of the full screen: of about 220,000 compounds, about 16,000 (7.3%) were called active. Not shown: some 25% with an inconclusive outcome. The call rests on the fitted dose curve; in most records, active means well fitted inhibition curve with a large enough effect (not every such curve was filed as active); inconclusive means small, poorly fitted or top-dose-only effect, or another doubt; inactive means no such curve, though single readings can be large or run the other way. The list comes from a sample in which actives are over-represented; it also holds close analogues and randomly drawn compounds.
Pick one: active, inactive

State the result this test recorded for `Cc1cc(C)cc(N(CC(=O)NCCSCc2ccco2)S(C)(=O)=O)c1` .
inactive

Recorded test call requested for `COc1ccc(CN(C)Cc2nc3cc(OC)c(OC)cc3c(=O)[nH]2)c(OC)c1`
inactive

Identify the outcome logged in this assay for the molecule shown: `O=C(CC1CCCCC1)Nc1c2c(nn1-c1ccc(F)cc1)CS(=O)(=O)C2`
active

What was the test verdict on `CCCn1c(SCC(=O)Nc2c(C)cccc2C)nnc1C(C)C` ?
inactive

For `COCCn1c(=S)[nH]c2cc(C(=O)NCCc3ccc(OC)c(OC)c3)ccc2c1=O` , which call appears in the assay record?
inactive

Per the assay record, what outcome was assigned to `O=C(NCc1cccnc1)c1cccc(-c2cc3ccccc3oc2=O)c1` ?
inactive

Recorded call for `COC(=O)[C@H](Cc1ccccc1)NC(=O)[C@@H]1C[C@H]1[C@@H](NC(=O)OCc1ccccc1)c1ccccc1` ?
inactive

Tell me the assay call for CC(C)C(NC(=O)C1CCC(C(C)(C)C)CC1)C(=O)NCCCN1CCCCC1 (stereo unspecified) please.
inactive

GET /call?item= O=C(NCC1CCC(C(=O)O)CC1)OCc1ccccc1 (stereo unspecified) returns the recorded outcome of this test.
inactive

Identify the outcome logged in this assay for the molecule shown: COC(=O)c1ccc2c(=O)n(CC3CCCO3)c(=S)[nH]c2c1 (stereo unspecified)
active
